experimental target: full-length human PIKFYVE (N-terminal GST-fusion) (Homo sapiens (Human), UniProt Q9Y2I7, L932S/Q1183K/Q995L/S1033A/S696N/T998S)
Sequence (Q9Y2I7 whole entry S696N/L932S/Q995L/T998S/S1033A/Q1183K, the tested form may be a part): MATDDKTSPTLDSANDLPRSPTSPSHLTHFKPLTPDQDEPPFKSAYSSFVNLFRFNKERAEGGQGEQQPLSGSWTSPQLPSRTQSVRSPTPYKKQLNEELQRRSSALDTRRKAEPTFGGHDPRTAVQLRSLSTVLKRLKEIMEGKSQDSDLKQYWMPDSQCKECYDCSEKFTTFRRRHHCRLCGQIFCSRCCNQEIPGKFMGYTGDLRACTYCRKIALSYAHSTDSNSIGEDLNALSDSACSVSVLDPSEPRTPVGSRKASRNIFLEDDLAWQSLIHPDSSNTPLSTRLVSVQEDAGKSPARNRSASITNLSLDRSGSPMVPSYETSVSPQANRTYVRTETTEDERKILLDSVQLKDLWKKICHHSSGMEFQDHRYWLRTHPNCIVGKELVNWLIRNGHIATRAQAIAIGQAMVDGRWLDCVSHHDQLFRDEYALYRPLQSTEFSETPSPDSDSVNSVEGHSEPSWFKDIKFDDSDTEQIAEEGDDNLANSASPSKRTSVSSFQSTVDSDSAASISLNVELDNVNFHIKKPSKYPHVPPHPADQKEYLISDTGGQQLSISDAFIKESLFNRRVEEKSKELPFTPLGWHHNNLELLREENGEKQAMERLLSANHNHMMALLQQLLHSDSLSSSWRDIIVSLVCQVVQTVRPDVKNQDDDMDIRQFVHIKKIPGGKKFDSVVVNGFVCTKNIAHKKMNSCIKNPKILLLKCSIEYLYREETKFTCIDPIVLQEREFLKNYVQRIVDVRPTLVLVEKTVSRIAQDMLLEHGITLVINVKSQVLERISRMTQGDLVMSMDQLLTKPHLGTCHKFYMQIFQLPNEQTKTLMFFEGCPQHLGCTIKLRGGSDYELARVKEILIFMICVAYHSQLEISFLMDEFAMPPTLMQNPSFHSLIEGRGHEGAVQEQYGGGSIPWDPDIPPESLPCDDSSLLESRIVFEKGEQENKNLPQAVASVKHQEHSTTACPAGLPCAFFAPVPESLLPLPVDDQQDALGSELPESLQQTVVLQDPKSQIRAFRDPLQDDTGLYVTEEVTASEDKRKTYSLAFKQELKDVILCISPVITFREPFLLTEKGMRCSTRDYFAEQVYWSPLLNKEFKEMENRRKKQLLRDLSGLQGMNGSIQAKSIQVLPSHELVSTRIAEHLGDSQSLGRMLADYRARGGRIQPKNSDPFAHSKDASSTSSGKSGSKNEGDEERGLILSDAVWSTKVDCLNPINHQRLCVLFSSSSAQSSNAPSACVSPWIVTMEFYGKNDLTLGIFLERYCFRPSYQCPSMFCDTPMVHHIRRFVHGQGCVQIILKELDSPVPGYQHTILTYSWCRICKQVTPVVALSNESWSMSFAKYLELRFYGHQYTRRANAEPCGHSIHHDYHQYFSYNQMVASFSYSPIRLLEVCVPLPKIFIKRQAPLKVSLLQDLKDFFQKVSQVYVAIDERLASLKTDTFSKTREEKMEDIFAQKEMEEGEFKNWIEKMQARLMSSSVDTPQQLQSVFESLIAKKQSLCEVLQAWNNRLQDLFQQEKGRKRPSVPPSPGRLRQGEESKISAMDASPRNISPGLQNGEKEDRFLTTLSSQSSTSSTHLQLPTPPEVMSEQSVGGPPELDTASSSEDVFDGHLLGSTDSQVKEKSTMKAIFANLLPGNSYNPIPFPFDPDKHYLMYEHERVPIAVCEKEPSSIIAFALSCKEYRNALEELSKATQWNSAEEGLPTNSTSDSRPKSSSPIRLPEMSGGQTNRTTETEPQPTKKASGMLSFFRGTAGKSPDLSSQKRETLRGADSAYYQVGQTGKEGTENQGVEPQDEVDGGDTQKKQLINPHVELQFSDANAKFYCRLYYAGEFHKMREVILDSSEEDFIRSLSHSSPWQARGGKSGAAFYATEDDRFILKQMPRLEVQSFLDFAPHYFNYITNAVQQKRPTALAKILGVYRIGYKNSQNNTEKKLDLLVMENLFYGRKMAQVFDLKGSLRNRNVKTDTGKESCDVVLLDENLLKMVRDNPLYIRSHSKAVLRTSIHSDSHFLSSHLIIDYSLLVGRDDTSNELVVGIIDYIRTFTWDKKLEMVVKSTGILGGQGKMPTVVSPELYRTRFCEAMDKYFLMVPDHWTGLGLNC
protocol details: PIKfyve biochemical assay (ADP-Glo Kinase assay, Carna Biosciences)
assay context: ADP-Glo, full-length human GST-PIKFYVE, 10 μM to 3 nM; read-out: hPIKfyve IC50
observable: IC50

[
  {
    "compound": "CN1CCCC(COc2nc(N3CCOCC3)nc3c2CCN3c2cncnc2)C1 (stereo not drawn)",
    "readout value": "1000 to 10000 nM"
  },
  {
    "compound": "c1cncc(N2CCc3c(-c4ccoc4)nc(N4CCOCC4)nc32)c1",
    "readout value": "10 to 100 nM"
  },
  {
    "compound": "c1ccc(N2CCc3c(C4CCNC4)nc(N4CCOCC4)nc32)cc1 (stereo not drawn)",
    "readout value": "10 to 100 nM"
  },
  {
    "compound": "c1cc(-c2c[nH]c3c(OCc4cccnn4)nc(N4CCOCC4)nc23)cc(-n2cccn2)c1",
    "readout value": "10 to 100 nM"
  },
  {
    "compound": "CC(C)(O)Cc1nc(N2CCOCC2)nc2c1CCN2c1ccccc1",
    "readout value": "10 to 100 nM"
  },
  {
    "compound": "O=C(C1CC1)N1CCC(c2nc(N3CCOCC3)nc3c2CCN3c2ccccc2)C1 (stereo not drawn)",
    "readout value": "< 10 nM"
  },
  {
    "compound": "c1ccc(N2CCc3c(NC4COC4)nc(N4CCOCC4)nc32)cc1",
    "readout value": "> 10000 nM"
  },
  {
    "compound": "c1cncc(N2CCc3c(C4CCNCC4)nc(N4CCOCC4)nc32)c1",
    "readout value": "1000 to 10000 nM"
  },
  {
    "compound": "CC(C)(C)OC(=O)N1CCC(N2CCc3c(OCc4cccnc4)nc(N4CCOCC4)nc32)CC1",
    "readout value": "> 10000 nM"
  },
  {
    "compound": "c1ccc(N2CCc3c(OC4CCOCC4)nc(N4CCOCC4)nc32)cc1",
    "readout value": "100 to 1000 nM"
  },
  {
    "compound": "c1ccc(Oc2nc(N3CCOCC3)nc3c2CCN3c2cccnc2)nc1 [Compound 51]",
    "readout value": "100 to 1000 nM"
  },
  {
    "compound": "N#Cc1nc(N2CCOCC2)nc2c1CCN2c1ccccc1",
    "readout value": "100 to 1000 nM"
  },
  {
    "compound": "Cc1nc(N2CCOCC2)nc2c1CCN2c1ccccc1",
    "readout value": "100 to 1000 nM"
  },
  {
    "compound": "c1cncc(N2CCc3c(OCC4CCNC4)nc(N4CCOCC4)nc32)c1 (stereo not drawn)",
    "readout value": "100 to 1000 nM"
  },
  {
    "compound": "CC(C)(O)COc1nc(N2CCOCC2)nc2c1CCN2c1cccnc1",
    "readout value": "100 to 1000 nM"
  },
  {
    "compound": "c1cc(-c2nc(N3CCOCC3)nc3c2CCN3C2CCOCC2)ccn1",
    "readout value": "100 to 1000 nM"
  },
  {
    "compound": "c1ccc(N2CCc3c(-c4cnco4)nc(N4CCOCC4)nc32)cc1",
    "readout value": "10 to 100 nM"
  },
  {
    "compound": "c1cncc(-c2nc(N3CCOCC3)nc3c2CCN3c2ccc3c(c2)OCO3)c1",
    "readout value": "10 to 100 nM"
  }
]
